Documented melting point across a set of compounds

Example compounds with recorded melting point:
input_smiles: CCCCCCCCCCCCCCOc1ccc(CC(=O)Cl)cc1
melting point: 78 to 80 °C
--
input_smiles: COc1cc([N+](=O)[O-])c(C=O)cc1OCc1ccccc1
melting point: 131 to 132 °C

Now, please, on to the next compound.
Query: Would you kindly share the measured melting point for COc1cc(COc2nn(-c3ccccc3)cc2C=O)ccc1OCc1nc(-c2ccccc2)sc1C ?
Reply: 164 to 165 °C

###

recorded_endpoint: melting point

molecule: O=c1[nH]c2ccccc2cc1Br
recorded_endpoint: melting point
reported_result: 263 to 265 °C
//
molecule: Cc1nc(-c2ccc(C(F)(F)F)cc2)sc1CSc1ccc(OCC(=O)O)c2c1CCCC2
recorded_endpoint: melting point
reported_result: 166 to 167 °C
//
molecule: O=C1CC(Cc2ccncc2)(Cc2ccncc2)C(=O)N1C12CC3CC(CC(C3)C1)C2
recorded_endpoint: melting point
reported_result: 137 to 138 °C
//
molecule: CCOC(=O)Cc1cc(C)c(C(=O)c2ccc(F)cc2)n1C
recorded_endpoint: melting point
reported_result: 84 to 86 °C
//
molecule: N#CCCn1nc2ccc(Cl)nn2c1=O
recorded_endpoint: melting point
reported_result: 166 to 168 °C
//
molecule: COc1ccc2c(c1)c(O)c(C#N)n2-c1ccccc1
recorded_endpoint: melting point
reported_result: 182 °C

Query: Would you kindly share the measured melting point for Cc1cc(C(C)(C)C)c(O)c(S(=O)(=O)Nc2ccc(C#N)c(C(F)(F)F)c2)c1 ?
Reply: 159 to 162 °C

Query: And CC(C)(C)c1cc(C(c2ccccc2)c2cc(C(C)(C)C)cc(C(C)(C)C)c2O)c(O)c(C(C)(C)C)c1 ?
Reply: 165 to 167 °C

Query: And Nc1nccn2c(C3CCC3)nc(-c3ccc4cccnc4c3)c12 ?
Reply: 94 to 96 °C

Query: And CC(C)(Cc1c[nH]c2ccccc12)NC[C@H](O)CO ?
Reply: 77 to 77.8 °C

Query: And COc1cc(C2=NN(c3ccccc3)C(=O)C2)cc([N+](=O)[O-])c1OC ?
Reply: 190 to 192 °C

Query: And COc1cc(-c2oc3ccc(CC(=O)NC(CC(C)C)C(N)=O)cc3c2SC)ccc1O (configuration not stated) ?
Reply: 220 °C
